Provenance of the data: ChEMBL document CHEMBL4330106

Some molecules, each annotated with its measured solubility.
Test: Solubility of the compound in water
Format: physicochemical

{"columns": ["Mol", "solubility"],
 "data": [
  ["CNC(=N)NCCC[C@H](NC(=O)[C@H](CC(C)C)NC(=O)NNC(=O)[C@H](Cc1ccccc1)NC(=O)c1ccccc1)C(=O)N[C@@H](Cc1c[nH]c2ccccc12)C(N)=O", "< 10 mg/mL"],
  ["CNC(=N)NCCC[C@H](NC(=O)[C@H](CC(C)C)NC(=O)NNC(=O)[C@H](Cc1ccccc1)NC(=O)c1ccncc1)C(=O)N[C@@H](Cc1c[nH]c2ccccc12)C(N)=O", "> 20 mg/mL"]
]}
